target-or-system: 5-hydroxytryptamine receptor 7 (Homo sapiens, UniProt P34969)
Sequence (P34969 whole entry): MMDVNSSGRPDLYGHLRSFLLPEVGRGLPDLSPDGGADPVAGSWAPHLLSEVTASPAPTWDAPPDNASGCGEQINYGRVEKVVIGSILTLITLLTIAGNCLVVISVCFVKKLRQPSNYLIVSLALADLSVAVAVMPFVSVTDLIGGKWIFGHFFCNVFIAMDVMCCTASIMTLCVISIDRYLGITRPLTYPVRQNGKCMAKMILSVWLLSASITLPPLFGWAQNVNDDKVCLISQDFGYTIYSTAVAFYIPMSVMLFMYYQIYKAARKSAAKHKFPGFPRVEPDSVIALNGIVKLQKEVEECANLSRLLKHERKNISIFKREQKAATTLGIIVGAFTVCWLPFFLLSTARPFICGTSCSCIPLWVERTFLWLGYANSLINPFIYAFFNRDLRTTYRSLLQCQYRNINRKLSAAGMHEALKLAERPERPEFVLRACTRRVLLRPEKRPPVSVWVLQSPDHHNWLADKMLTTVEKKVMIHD
assay-name: Displacement of [3H]D-lysergic acid diethylamide from 5HT7R (unknown origin) expressed in CHO-K1 cell membranes incubated for 1.5 hrs in absence of light by liquid scintillation counting
reported-metric: pKi
Please express pKi as -log10 of the molar concentration.

Query string: Can you look up the measured pKi of COc1ccccc1-c1cccc(CN2CCN(c3ccccc3OC)CC2)c1 for me?
Result string: 7.82

* * *

target-or-system: 5-hydroxytryptamine receptor 7 (Homo sapiens, UniProt P34969)
assay-name: Antagonist activity at human 5-HT7R expressed in HEK293 cells assessed as inhibition of serotonin stimulated cAMP levels at 10 uM preincubated for 10 mins followed by serotonin stimulation after 30 mins by D2-dye based fluorescence assay
Type: functional, cell-based
reported-metric: Imax (%)

> print(dat)
                               entry.smiles  reported.value
1        COc1ccccc1-c1cc(CN2CCC(C)CC2)ccc1C              29
2  COc1ccccc1-c1cc(CN2CCN(c3ccccc3OC)CC2)ccc1C            69.3

a. CNCc1ccc(C)c(-c2ccccc2OC)c1
b. COc1ccccc1-c1cc(CN2CCC(C)CC2)ccc1OC
Query string: For a and b , which recorded Imax is lower? I would appreciate it if you answered with the label of your choice.
Result string: a
(a: 2.49%, b: 7.74%)

1. COc1ccccc1-c1cc(CN(C)C)ccc1OC
2. COc1ccccc1-c1cc(CN2CCC(C)CC2)ccc1Cl
Query string: For 1 and 2 , which recorded Imax is lower? I would appreciate it if you answered with the label of your choice.
Result string: 1
(1: 4.54%, 2: 52.3%)

* * *

target-or-system: 5-hydroxytryptamine receptor 7 (Homo sapiens, UniProt P34969)
assay-name: Antagonist activity at human 5-HT7R expressed in HEK293 cells assessed as inhibition of serotonin stimulated cAMP levels at 10 uM preincubated for 10 mins followed by serotonin stimulation after 30 mins by D2-dye based fluorescence assay
Format: functional, cell-based
reported-metric: Imax (%)

> print(dat)
                    entry.smiles  reported.metric  reported.value
1  COc1ccccc1-c1cc(CN(C)C)ccc1Cl             Imax            10.3

I. COc1ccccc1-c1cccc(CN2CCC(C)CC2)c1
II. COc1ccccc1-c1cc(CN2CCN(c3ccccc3OC)CC2)cc2c1OCO2
III. CNCc1ccc(OC)c(-c2ccccc2OC)c1
IV. CNCc1cccc(-c2ccccc2OC)c1
V. COc1ccccc1-c1cc(CN(C)C)ccc1C
Query string: Ordering criterion: Imax; begin with the maximum. Reply with the labels, ordered as the question asks.
Result string: II, I, V, III, IV

a. CC1CCN(CC[C@H]2CCCN2S(=O)(=O)c2cccc(O)c2)CC1
b. COc1ccccc1-c1cccc(CN(C)C)c1
Query string: Returns: the argument ( a or b ) having the larger Imax. I would appreciate it if you answered with the label of your choice.
Result string: a

P. COc1ccccc1-c1cc(CN(C)C)cc2c1OCO2
Q. CNCc1cc2c(c(-c3ccccc3OC)c1)OCO2
Query string: For P and Q , which recorded Imax is lower? I would appreciate it if you answered with the label of your choice.
Result string: Q

A. CNCc1ccc(Cl)c(-c2ccccc2OC)c1
B. COc1ccccc1-c1cc(CN2CCN(c3ccccc3OC)CC2)ccc1OC
C. COc1ccccc1-c1cc(CN2CCC(C)CC2)cc2c1OCO2
Query string: Ordering criterion: Imax; begin with the maximum. Reply with the labels, ordered as the question asks.
Result string: B, C, A
(B: 91.6%, C: 15.6%, A: 4.66%)

* * *

target-or-system: 5-hydroxytryptamine receptor 7 (Homo sapiens, UniProt P34969)
assay-name: Displacement of [3H]D-lysergic acid diethylamide from 5HT7R (unknown origin) expressed in HEK293 cell membranes incubated for 1.5 hrs in absence of light by liquid scintillation counting
reported-metric: Ki (nM)

Look over these answered cases.
> print(dat)
                          entry.smiles                          target.or.system  unit.abbreviation  reported.value
1        COc1ccccc1-c1cc(CN(C)C)ccc1OC  5-hydroxytryptamine receptor 7 (Homo sapiens, UniProt P34969)                 nM            1020
2          CNCc1ccc(C)c(-c2ccccc2OC)c1  5-hydroxytryptamine receptor 7 (Homo sapiens, UniProt P34969)                 nM              15
3  COc1ccccc1-c1cc(CN2CCC(C)CC2)ccc1Cl  5-hydroxytryptamine receptor 7 (Homo sapiens, UniProt P34969)                 nM             389
4         CNCc1ccc(Cl)c(-c2ccccc2OC)c1  5-hydroxytryptamine receptor 7 (Homo sapiens, UniProt P34969)                 nM             5.2

I. COc1ccccc1-c1cc(CN2CCN(c3ccccc3OC)CC2)cc2c1OCO2
II. CNCc1ccc(OC)c(-c2ccccc2OC)c1
Query string: Returns: the argument ( I or II ) having the larger Ki. I would appreciate it if you answered with the label of your choice.
Result string: II
(II: 648 nM, I: 34 nM)

* * *

target-or-system: 5-hydroxytryptamine receptor 7 (Homo sapiens, UniProt P34969)
assay-name: Displacement of [3H]D-lysergic acid diethylamide from 5HT7R (unknown origin) expressed in HEK293 cell membranes incubated for 1.5 hrs in absence of light by liquid scintillation counting
reported-metric: Ki (µM)

> print(dat)
                               entry.smiles  reported.metric  unit.abbreviation  reported.value
1                  CNCc1cccc(-c2ccccc2OC)c1               Ki                 µM           0.226
2         COc1ccccc1-c1cccc(CN2CCC(C)CC2)c1               Ki                 µM            1.04
3          COc1ccccc1-c1cc(CN(C)C)cc2c1OCO2               Ki                 µM           0.772
4  COc1ccccc1-c1cc(CN2CCN(c3ccccc3OC)CC2)ccc1OC               Ki                 µM           0.079
5        COc1ccccc1-c1cc(CN2CCC(C)CC2)ccc1C               Ki                 µM            1.12
6           CNCc1cc2c(c(-c3ccccc3OC)c1)OCO2               Ki                 µM            1.48
7              COc1ccccc1-c1cc(CN(C)C)ccc1C               Ki                 µM           0.023
8  COc1ccccc1-c1cc(CN2CCN(c3ccccc3OC)CC2)ccc1C               Ki                 µM           0.018

A. COc1ccccc1-c1cc(CN2CCN(c3ccccc3OC)CC2)ccc1Cl
B. COc1ccccc1-c1cc(CN(C)C)ccc1Cl
C. COc1ccccc1-c1cc(CN2CCC(C)CC2)cc2c1OCO2
D. COc1ccccc1-c1cc(CN2CCC(C)CC2)ccc1OC
E. COc1ccccc1-c1cccc(CN(C)C)c1
Query string: Ordering criterion: Ki; begin with the maximum. Reply with the labels, ordered as the question asks.
Result string: D, C, E, A, B
(D: 3.06 µM, C: 0.691 µM, E: 0.126 µM, A: 0.073 µM, B: 0.018 µM)

* * *

target-or-system: 5-hydroxytryptamine receptor 7 (Homo sapiens)
assay-name: Antagonist activity at human 5-HT7R expressed in HEK293 cells assessed as inhibition of serotonin stimulated-cAMP levels preincubated for 10 mins followed by serotonin stimulation after 30 mins by D2-dye based fluorescence assay
pIC50: −log10 of the molar value.
reported-metric: pIC50

Look over these answered cases.
> print(dat)
                               entry.smiles  reported.metric  reported.value
1  COc1ccccc1-c1cc(CN2CCN(c3ccccc3OC)CC2)ccc1C            pIC50            5.20
2  COc1ccccc1-c1cc(CN2CCN(c3ccccc3OC)CC2)ccc1Cl            pIC50            4.64

1. COc1ccccc1-c1cc(CN2CCN(c3ccccc3OC)CC2)ccc1OC
2. COc1ccccc1-c1cc(CN2CCN(c3ccccc3OC)CC2)cc2c1OCO2
Query string: For 1 and 2 , which recorded pIC50 is lower? I would appreciate it if you answered with the label of your choice.
Result string: 2
(2: 4.70, 1: 5.25)

* * *

target-or-system: 5-hydroxytryptamine receptor 7 (Homo sapiens)
assay-name: Agonist activity at human 5-HT7R expressed in HEK293 cells assessed as induction of cAMP levels at 10 uM treated for 10 mins measured after 30 mins by D2-dye based fluorescence assay relative to serotonin
Assay type: functional, cell-based
reported-metric: Emax (%)

Look over these answered cases.
> print(dat)
                               entry.smiles                          target.or.system  reported.metric  reported.value
1             COc1ccccc1-c1cc(CN(C)C)ccc1OC  5-hydroxytryptamine receptor 7 (Homo sapiens)             Emax            28.8
2         COc1ccccc1-c1cccc(CN2CCC(C)CC2)c1  5-hydroxytryptamine receptor 7 (Homo sapiens)             Emax            8.59
3           CNCc1cc2c(c(-c3ccccc3OC)c1)OCO2  5-hydroxytryptamine receptor 7 (Homo sapiens)             Emax            13.6
4  COc1ccccc1-c1cc(CN2CCN(c3ccccc3OC)CC2)cc2c1OCO2  5-hydroxytryptamine receptor 7 (Homo sapiens)             Emax           -1.56
5              COc1ccccc1-c1cc(CN(C)C)ccc1C  5-hydroxytryptamine receptor 7 (Homo sapiens)             Emax            33.3

P. COc1ccccc1-c1cc(CN(C)C)cc2c1OCO2
Q. COc1ccccc1-c1cc(CN2CCC(C)CC2)ccc1C
Query string: For P and Q , which recorded Emax is lower? I would appreciate it if you answered with the label of your choice.
Result string: Q
(Q: 2.53%, P: 3.97%)

Source of measurements: ChEMBL document CHEMBL3870307
